Molecular target: Ba/F3 L858R/T790M/C797S EGFR triple mutant cell line (Homo sapiens, UniProt P00533, T790M/C797S/L858R, cells depend on it)
Sequence (P00533 whole entry T790M/C797S/L858R): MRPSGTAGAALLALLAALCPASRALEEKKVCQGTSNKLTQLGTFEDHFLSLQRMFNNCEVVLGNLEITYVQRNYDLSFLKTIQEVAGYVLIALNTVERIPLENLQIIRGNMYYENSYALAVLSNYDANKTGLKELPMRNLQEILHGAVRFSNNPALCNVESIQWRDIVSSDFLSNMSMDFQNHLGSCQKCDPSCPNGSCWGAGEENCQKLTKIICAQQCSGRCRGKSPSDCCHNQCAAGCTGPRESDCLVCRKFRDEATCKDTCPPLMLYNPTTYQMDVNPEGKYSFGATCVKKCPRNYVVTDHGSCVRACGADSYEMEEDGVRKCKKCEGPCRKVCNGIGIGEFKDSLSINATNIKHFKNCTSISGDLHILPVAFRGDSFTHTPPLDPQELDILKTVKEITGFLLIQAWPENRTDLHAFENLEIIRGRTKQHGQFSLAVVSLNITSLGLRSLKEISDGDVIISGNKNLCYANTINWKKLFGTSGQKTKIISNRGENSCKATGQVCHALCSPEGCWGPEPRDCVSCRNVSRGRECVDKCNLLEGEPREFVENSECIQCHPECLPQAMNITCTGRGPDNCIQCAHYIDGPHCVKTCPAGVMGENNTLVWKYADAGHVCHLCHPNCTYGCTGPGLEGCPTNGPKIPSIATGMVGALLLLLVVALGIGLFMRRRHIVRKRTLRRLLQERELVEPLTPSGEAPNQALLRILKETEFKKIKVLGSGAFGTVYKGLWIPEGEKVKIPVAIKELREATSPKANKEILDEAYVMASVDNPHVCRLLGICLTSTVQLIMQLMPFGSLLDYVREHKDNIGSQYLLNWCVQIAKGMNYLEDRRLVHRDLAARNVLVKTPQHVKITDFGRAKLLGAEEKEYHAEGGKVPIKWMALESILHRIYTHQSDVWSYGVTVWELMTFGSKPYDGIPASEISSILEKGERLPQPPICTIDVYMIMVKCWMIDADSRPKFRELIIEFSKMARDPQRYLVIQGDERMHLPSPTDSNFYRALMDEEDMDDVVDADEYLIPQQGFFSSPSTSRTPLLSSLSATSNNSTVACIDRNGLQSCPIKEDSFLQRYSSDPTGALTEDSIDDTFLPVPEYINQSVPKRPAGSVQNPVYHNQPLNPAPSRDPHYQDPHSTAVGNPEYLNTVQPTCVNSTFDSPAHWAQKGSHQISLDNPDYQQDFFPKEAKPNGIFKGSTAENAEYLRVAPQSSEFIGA
Assay: Cell proliferation inhibition experiment (CellTiter-Glo), Ba/F3 L858R/T790M/C797S
Assay type: cell-based
Conditions: 72 hours, Cell Titer-Glo, read-out: Ba/F3 (L858R/T790M/C797S) IC50
Experimental: 3) 30 nL of gradient diluted compound was transferred into the 384-well experimental plate using Echo 550 (Labcyte) at a DMSO final concentration of 0.1%, and the culture plate was incubated in a cell incubator for 72 hours (37° C., 5% CO2). 4) 30 μL of Cell Titer-Glo reagent was added to each well and left for 30 minutes at room temperature and protected from light. 5) Envision microplate reader (PerkinElmer) detected chemiluminescence signals. […]
reported-metric: GI50 (nM)

// worked examples, GI50 included
| molecule | recorded-number |
| --- | --- |
| COc1cc(N2CCC3(CCN(CCF)CC3)CC2)c(-c2cnn(C)c2)cc1Nc1ncc(Cl)c(Nc2ccc3nccnc3c2P(C)(C)=O)n1 [compound 233] | 3.54 |
| COc1c(Nc2ncc(Br)c(Nc3ccc4nccnc4c3P(C)(C)=O)n2)cc(-c2cnn(C)c2)c(N2CCOCC2)c1F [compound 23] | 30.3 |

I = COc1cc(N2CCOCC2)c(-c2cn(C)nc2C)cc1Nc1ncc(Br)c(Nc2ccc3nccnc3c2P(C)(C)=O)n1 [compound 43]
II = COCCN1CCN(c2cc(OC)c(Nc3ncc(Br)c(Nc4ccc5nccnc5c4P(C)(C)=O)n3)cc2-c2cnn(C)c2)CC1 [compound 92]
III = COc1cc(N2CC(C)OC(C)C2)c(-c2cnn(C)c2)cc1Nc1ncc(Br)c(Nc2ccc3nccnc3c2P(C)(C)=O)n1 (single isomer, unassigned) [155a]
Asked: Could you please order the items by GI50, going from the lowest number to the highest? Answer by writing out the labels in the requested order.
Given back: II, III, I
(II: 2.85 nM, III: 15.6 nM, I: 29.7 nM)

A = [2H]C([2H])([2H])N(c1cc(OC)c(Nc2ncc(Br)c(Nc3ccc4nccnc4c3P(C)(C)=O)n2)cc1-c1cnn(C)c1)C([2H])([2H])[2H] [compound 145]
B = COc1cc(C(=O)N(C)C)c(-c2cnn(C)c2)cc1Nc1ncc(Br)c(Nc2ccc3nccnc3c2P(C)(C)=O)n1 [compound 40]
C = COc1cc(F)c(-c2cnn(C)c2)cc1Nc1ncc(Br)c(Nc2ccc3nccnc3c2P(C)(C)=O)n1 [compound 84]
D = COc1cc(N2CCN(C3(C)CC3)CC2)c(-c2cnn(C)c2)cc1Nc1ncc(Br)c(Nc2ccc3nccnc3c2P(C)(C)=O)n1 [compound 229]
Asked: Could you please order the items by GI50, going from the lowest number to the highest? Answer by writing out the labels in the requested order.
Given back: A, D, C, B

P = COc1cc(N2CCOCC2)c(-c2cnn(C)c2)nc1Nc1ncc(C)c(Nc2ccc3nccnc3c2P(C)(C)=O)n1 [compound 71]
Q = Cn1cc(-c2cc(Nc3ncc(Br)c(Nc4ccc5nccnc5c4P(C)(C)=O)n3)c3c(c2)OCO3)cn1 [Compound 82]
R = COc1cc(N2CCN(C3COC3)CC2)c(-c2cnn(C)c2)cc1Nc1ncc(Br)c(Nc2ccc3nccnc3c2P(C)(C)=O)n1 [compound 150]
S = COc1cc(N2CC[C@H](OC)[C@H](F)C2)c(-c2cnn(C)c2)cc1Nc1ncc(Br)c(Nc2ccc3nccnc3c2P(C)(C)=O)n1 [compound 187]
Asked: Hello, I need these entries ordered by GI50, highest reading first. Thanks! Answer by writing out the labels in the requested order.
Given back: P, Q, S, R
(P: 316 nM, Q: 21.7 nM, S: 8.73 nM, R: 3.34 nM)
